Test system: soybean (Glycine max L., var. Pella 86, SOY)
Assay: Pre-emerge greenhouse test, crop damage rating
Type: in vivo
Conditions: 125 g ai/ha, 14 days after application, rating scale 0-100
Hi there, I'd appreciate the recorded crop damage rating SOY for every entry that follows.

Answered examples (2):
- molecule: "Cn1nc(-c2cc(Oc3ncccn3)c(Cl)cc2F)c(Cl)c1C(F)(F)F [Compound 1-7]"
  crop damage rating SOY: 0
- molecule: "Cn1c(C(F)(F)F)nc(-c2cc(Oc3ncccn3)c(Cl)cc2F)c1Cl [Compound 2-3]"
  crop damage rating SOY: 50

Give crop damage rating SOY for each of the items listed below.
1. O=c1n(CCCF)nnn1-c1cc(Oc2ncccc2[N+](=O)[O-])c(Cl)cc1F [Compound 6-2]
2. O=c1n(-c2cc(Oc3ccccc3)c(Cl)cc2F)c(=S)n2n1CCCC2 [Compound 8-5]

### Response
1: 10; 2: 0

---

Tested on: field corn (Zea mays L., var. Dekalb 535, CORN)
Assay: Pre-emerge greenhouse test, crop damage rating
Format: in vivo
Details: 1000 g ai/ha, 14 days after application, rating scale 0-100
Description: A standard greenhouse herbicide activity screening system was used to evaluate the herbicidal efficacy and crop safety of these test compounds. […] At 14 days after application of the test materials, phytotoxicity ratings were recorded. […]
test readout: crop damage rating CORN

- compound: "O=c1cc2n(c(=O)n1-c1cc(Oc3ccc([N+](=O)[O-])cc3)c(Cl)cc1F)CCC2"
  crop damage rating CORN: 0
- compound: "O=c1cc2n(c(=O)n1-c1cc(Oc3ncccc3[N+](=O)[O-])c(Cl)cc1F)CCC2"
  crop damage rating CORN: 15
- compound: "O=c1cc2n(c(=O)n1-c1cc(Oc3ccccc3[N+](=O)[O-])c(Cl)cc1F)CCC2"
  crop damage rating CORN: 5
- compound: "N#Cc1ccc(Oc2cc(-n3c(=O)cc4n(c3=O)CCC4)c(F)cc2Cl)nc1"
  crop damage rating CORN: 30
- compound: "N#Cc1cccnc1Oc1cc(-n2c(=O)cc3n(c2=O)CCC3)c(F)cc1Cl"
  crop damage rating CORN: 0

Give crop damage rating CORN for each of the items listed below.
1. CCOC(=O)C(C)Oc1ccc(Oc2cc(-n3c(=O)cc4n(c3=O)CCC4)c(F)cc2Cl)cc1 (stereo not shown)
2. Nc1ccc(Oc2cc(-n3c(=O)cc4n(c3=O)CCC4)c(F)cc2Cl)cc1

### Response
1. 40
2. 0

---

Hi there, I'd appreciate the recorded phytotoxicity rating CHEAL for every entry that follows.
Test system: lambsquarters (Chenopodium album, CHEAL)
Test: Post-emerge greenhouse herbicide test, phytotoxicity rating
Format: in vivo
Conditions: rate 500 g ai/ha, 14 days after application, scale 0-100
Give bare numbers.

Answered examples (5):
- compound: "COc1nc(OC)nc(Oc2cc(-n3c(=O)n4n(c3=S)CCCC4)c(F)cc2Cl)n1 [Compound 8-34]"
  test readout: "phytotoxicity rating CHEAL"
  test result: 100
- compound: "CC(C)S(=O)(=O)c1cccnc1Oc1cc(-n2c(=O)n3n(c2=S)CCCC3)c(F)cc1Cl [Compound 8-37]"
  test readout: "phytotoxicity rating CHEAL"
  test result: 90
- compound: "O=c1n(-c2cc(Oc3ccccn3)c(Cl)cc2F)c(=S)n2n1CCCC2 [Compound 8-17]"
  test readout: "phytotoxicity rating CHEAL"
  test result: 100
- compound: "Nn1c(C(F)(F)F)cc(=O)n(-c2cc(Oc3cccc(C(F)(F)F)c3)c(Cl)cc2F)c1=O [Compound 9-25]"
  test readout: "phytotoxicity rating CHEAL"
  test result: 100
- compound: "O=c1n(-c2cc(Oc3ncccc3[N+](=O)[O-])c(Cl)cc2F)c(=S)n2n1CCCC2 [Compound 8-19]"
  test readout: "phytotoxicity rating CHEAL"
  test result: 100

Give phytotoxicity rating CHEAL for each of the items listed below.
1. Cc1nsc(Oc2cc(-n3c(=O)n4n(c3=S)CCCC4)c(F)cc2Cl)c1[N+](=O)[O-] [Compound 8-35]
2. Nc1ccc(Oc2cc(-n3c(=O)n4n(c3=S)CCCC4)c(F)cc2Cl)nc1 [Compound 8-24]
3. N#Cc1ccc(Oc2cc(-n3c(=O)n4n(c3=S)CCCC4)c(F)cc2Cl)nc1 [Compound 8-22]

### Response
99
80
100

Give phytotoxicity rating CHEAL for each of the items listed below.
1. COc1cc(Oc2cc(-n3c(=O)n4n(c3=S)CCCC4)c(F)cc2Cl)nc(OC)n1 [Compound 8-32]
2. O=c1n(-c2cc(Oc3nccc(C(F)(F)F)n3)c(Cl)cc2F)c(=S)n2n1CCCC2 [Compound 8-30]
3. O=c1n(-c2cc(Oc3cccc(F)n3)c(Cl)cc2F)c(=S)n2n1CCCC2 [Compound 8-25]
4. O=c1n(-c2cc(Oc3nc(F)c(F)cc3F)c(Cl)cc2F)c(=S)n2n1CCCC2 [Compound 8-28]
5. CC(=O)Nc1ccc(Oc2cc(-n3c(=O)n4n(c3=S)CCCC4)c(F)cc2Cl)c(C(F)(F)F)c1 [Compound 8-16]

### Response
100
100
100
100
95
